tested on: LOC_OS04G35114-cb001; experiment: thermal shift delta Tm vs DMSO control; higher = stronger stabilization (binding); settings: 12.5 µM; protein concentration 2 µM;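 note: purified Escherichia coli-expressed rice kinase domain construct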
metricName: thermal shift delta Tm
Don't forget the unit after the number, please.

Reference set, count: 4
O=C(O)c1ccc2c(c1)nc(Nc1cccc(Cl)c1)c1ccncc12	6.87 °C
NC[C@@](O)(c1ccc(Cl)cc1)c1ccc(-c2cn[nH]c2)cc1	1.05 °C
C=CC(=O)Nc1ccc2ncnc(Nc3cccc(Br)c3)c2c1	0.79 °C
N#CC[C@H](C1CCCC1)n1cc(-c2ncnc3[nH]ccc23)cn1	0.65 °C

What thermal shift delta Tm value was documented for this compound, Cc1c(CN2CCN(C(=O)[C@H](C)O)CC2)sc2c(N3CCOCC3)nc(-c3cnc(N)nc3)nc12 ?
0.55 °C

What thermal shift delta Tm value was documented for this compound, O=C(O)CCC(=O)Nc1ccc(Br)cn1 ?
0.74 °C

What thermal shift delta Tm value was documented for this compound, C=CC(=O)N1CCC[C@@H](n2nc(-c3ccc(Oc4ccccc4)cc3)c3c(N)ncnc32)C1 ?
3.03 °C
